TESTED ON: ScMyo5
TEST: SPOT peptide array binding signal intensity (averaged, normalized) (arbitrary units (background-subtracted, floor 0; scale differs between SH3 domains)); higher = stronger binding of the SH3 domain to the peptide
MEASURED ATTRIBUTE: SPOT peptide array binding signal intensity
# output: bare number, no unit

query: Supply measured SPOT peptide array binding signal intensity of `LTRRFPFLFPFDTRM` in your reply.
result: 1.5

query: Supply measured SPOT peptide array binding signal intensity of `RPVPPPPPMRTTTEG` in your reply.
result: 239

query: Supply measured SPOT peptide array binding signal intensity of `VKPRQLFPIPLNKVD` in your reply.
result: 4

query: Supply measured SPOT peptide array binding signal intensity of `TKIRRRPQQPLTDFT` in your reply.
result: 2
